Just for reference, patent US20080119515A1 is where these values come from.

Below, each of the molecules is paired with its reported pIC50 value.
Target: ZAP-70 (Homo sapiens, UniProt P43403)
Sequence (P43403 whole entry): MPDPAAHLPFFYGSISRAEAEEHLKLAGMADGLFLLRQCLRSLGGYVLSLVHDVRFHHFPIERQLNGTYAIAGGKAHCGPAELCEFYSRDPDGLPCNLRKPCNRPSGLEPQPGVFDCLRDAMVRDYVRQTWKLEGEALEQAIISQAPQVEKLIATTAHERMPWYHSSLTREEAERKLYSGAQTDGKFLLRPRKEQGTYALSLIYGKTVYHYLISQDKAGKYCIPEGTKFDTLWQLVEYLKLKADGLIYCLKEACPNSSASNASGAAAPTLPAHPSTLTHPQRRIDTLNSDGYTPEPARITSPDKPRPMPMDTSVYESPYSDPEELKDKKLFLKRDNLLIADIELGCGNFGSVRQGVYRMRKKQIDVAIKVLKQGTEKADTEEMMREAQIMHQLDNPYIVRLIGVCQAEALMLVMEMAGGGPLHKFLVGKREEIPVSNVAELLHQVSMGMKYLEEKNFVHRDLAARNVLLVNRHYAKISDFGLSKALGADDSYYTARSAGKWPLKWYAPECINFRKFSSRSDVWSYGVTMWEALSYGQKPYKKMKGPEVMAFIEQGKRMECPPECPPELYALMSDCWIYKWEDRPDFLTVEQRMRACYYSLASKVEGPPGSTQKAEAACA
Assay: DELFIA assay (ZAP-70 kinase, phosphorylation of biotinylated poly(glu,tyr))
Format: biochemical
Details: ZAP-70 DELFIA, class symbols; read-out: Activity (IC50 in vitro)
Method: Before initiation of kinase reactions, compounds were pre-incubated with ZAP-70. […] The amount of phosphate transferred to biotinylated poly(glu,tyr) was measured using the Dissociation Enhanced Lanthanide Fluorescence Immuno-assay (DELFIA) from Perkin Elmer according to manufacturers protocol. […] Free antibody was removed with six washes, Europium was dissociated from the antibody, and Europium fluorescence was measured at using an excitation wavelength of 340 nm and an emission wavelength of 615 nm.
pIC50: −log10 of the molar value.

Look over these answered cases.
# entry smiles, pIC50
measured = [
    ("Cc1ccsc1-c1ccc2nc(NCc3ccc(C(F)(F)F)cc3)cc(C(=O)N3CCC[C@H]3CN3CCCC3)c2c1", "< 5.00"),
    ("O=C(c1cc(Cl)nc2ccc(-c3ccc4c(c3)OCO4)cc12)N1CCC[C@H]1CN1CCCC1", "5.00 to 6.00"),
    ("C[C@@H](CNc1cc(C(=O)N2CCC[C@H]2CN2CCCC2)c2cc(-c3ccc(C#N)cc3)ccc2n1)c1ccccc1", "< 5.00"),
    ("O=C(c1cc(CCc2cccc(F)c2)nc2ccc(-c3ccc4c(c3)OCO4)cc12)N1CCC[C@H]1CN1CCCC1", "> 6.00"),
    ("O=C(c1cc(Nc2ccc3c(c2)OCO3)nc2ccccc12)N1CCC[C@H]1CN1CCCC1", "< 5.00"),
]

Hey, ZAP-70 (Homo sapiens, UniProt P43403) data for `O=C(c1cc(NCc2ccc(C(F)(F)F)cc2)nc2ccc(-c3ccsc3)cc12)N1CCC[C@H]1CN1CCCC1` : pIC50 came out at > 6.00

Hey, ZAP-70 (Homo sapiens, UniProt P43403) data for `COc1ccc(CNc2cc(C(=O)N3CCC[C@H]3CN3CCCC3)c3cc(-c4ccc(C#N)cc4)ccc3n2)cc1` : pIC50 came out at < 5.00

Hey, ZAP-70 (Homo sapiens, UniProt P43403) data for `Cc1c(NCc2ccc(C(F)(F)F)cc2)nc2ccc(-c3ccc4c(c3)OCO4)cc2c1C(=O)N1CCC[C@H]1CN1CCCC1` : pIC50 came out at 5.00 to 6.00

Hey, ZAP-70 (Homo sapiens, UniProt P43403) data for `O=C(c1cc(NCc2ccc(C(F)(F)F)cc2)nc2ccc(-c3ccc4c(c3)OCO4)cc12)N1CCC[C@H]1CNC1CCCC1` : pIC50 came out at > 6.00

Hey, ZAP-70 (Homo sapiens, UniProt P43403) data for `N#Cc1ccc(-c2ccc3nc(NCc4ccc(F)cc4)cc(C(=O)N4CCC[C@H]4CN4CCCC4)c3c2)cc1` : pIC50 came out at < 5.00

Hey, ZAP-70 (Homo sapiens, UniProt P43403) data for `CN(C)C(=O)c1ccc(-c2ccc3nc(NCc4ccc(C(F)(F)F)cc4)cc(C(=O)N4CCC[C@H]4CN4CCCC4)c3c2)cc1` : pIC50 came out at < 5.00

Hey, ZAP-70 (Homo sapiens, UniProt P43403) data for `O=C(c1cc(N2CCC[C@H]2CO)nc2ccc(-c3ccc4c(c3)OCO4)cc12)N1CCC[C@H]1CN1CCCC1` : pIC50 came out at < 5.00
